Just for reference, PubChem BioAssay (NCI) is where these values come from.

Tested on: UACC-62 melanoma
protocol: NCI tumour cell line growth inhibition, 48 h
Quick reference for TGI among some molecules
All answers are understood in µM, so give the number only.

{"molecule": "O=C(NCCCCOCC#Cc1ccccc1C#CCS(=O)(=O)c1ccccc1)c1cc2ccccc2[nH]1", "TGI (µM)": 16.6}
{"molecule": "CCCCCCNC(=O)Oc1ccc(/C(=C(\\C)c2ccccc2)c2ccc(OCCN(CC)CC)cc2)cc1", "TGI (µM)": 7.4}
{"molecule": "O=C1OC(=O)C2C1C(c1ccccc1[N+](=O)[O-])C=C(c1ccco1)N2c1ccncc1 (stereo not given)", "TGI (µM)": 36.4}

Shift focus to the following entry.
Task: Return TGI (reported value) for this molecule: O=[As]c1ccc(C(=O)c2ccc(Oc3ccccc3)cc2)cc1 (stereo not given)
Output: 0.185

----------
Test system: LOX IMVI melanoma
protocol: NCI tumour cell line growth inhibition, 48 h
metric name: TGI

Task: Return TGI (reported value) for this compound: CO[C@H](C(=O)O)[C@@H]1Cc2cc3cc(OC4CC(OC5CC(O)C(O)C(C)O5)C(O)C(C)O4)c(C)c(O)c3c(O)c2C(=O)[C@H]1OC1CC(OC2CC(OC3CC(C)(O)C(O)C(C)O3)C(O)C(C)O2)C(O)C(C)O1 (stereo not given in full)
Output: 1.48 µM

Task: Return TGI (reported value) for this compound: `CCCn1c(N)c(C(=O)CNc2ccc(I)cc2)c(=O)[nH]c1=O`
Output: > 100 µM

Task: Return TGI (reported value) for this compound: c1ccc(C2[C@@H]3CCCc4ccccc4C3=NN2c2ccccc2)cc1 (stereo not given in full)
Output: > 100 µM

Task: Return TGI (reported value) for this compound: `c1ccc2nc(OCCN3CC3)ccc2c1`
Output: > 100 µM

Task: Return TGI (reported value) for this compound: O=C(/C(=C/c1ccccc1)c1ccccc1)N1c2ccccc2CC1c1c[nH]c2ccccc12 (stereo not given)
Output: > 100 µM

----------
Test system: MDA-MB-231 breast
protocol: NCI tumour cell line growth inhibition, 48 h; in the data active = GI50 below about 0.43 µM; inactive = the rest
Valid outcomes are listed here; reply with one: active, inactive

Consider the following illustrative entries.
{"molecule": "CN(C)CCNc1nc2ccccc2c2c(=O)c3ccccc3sc12", "measured on": "MDA-MB-231 breast", "discrete label": "inactive"}
{"molecule": "Cn1ncc(-c2ccc3c(=O)[nH]nc(CN)c3c2)c1-c1c(F)cc2ccccc2c1C#N", "measured on": "MDA-MB-231 breast", "discrete label": "inactive"}
{"molecule": "ClCC#CCSc1ncnc2c1ncn2CC#CCCl", "measured on": "MDA-MB-231 breast", "discrete label": "inactive"}

Task: I'd appreciate the recorded outcome for `C1CC[N-]CC1.CC(=N\O)/C(C)=N/O.CC(=N\O)/C(C)=N/O.[CH2-]CCN1CCOCC1.[Co+2]` from this test.
Output: inactive

Task: I'd appreciate the recorded outcome for `Cc1c(C(=O)O[C@H]2[C@@H]3[C@H](C)CC[C@H]3[C@]3(C)O[C@@]2(C2CCCCC2)C[C@H]3OC(=O)CO)ccc2ccccc12` from this test.
Output: inactive

Task: I'd appreciate the recorded outcome for OC(COc1cccc2ccccc12)CN1CCN(c2ccccc2Cl)CC1 (centres undefined) from this test.
Output: inactive

----------
Tested on: HCC-2998 colon
protocol: NCI tumour cell line growth inhibition, 48 h
Quick reference for GI50 among some compounds

{"mol": "COc1ccc(NC(=O)/C=C(C)/C=C/C=C(C)\\C=C\\C2=C(C)CCCC2(C)C)cc1", "measured on": "HCC-2998 colon", "GI50": "> 100 µM"}
{"mol": "CC(C)(C)C(=O)OCc1nc2cc3c(cc2c(=O)[nH]1)CCC3=O", "measured on": "HCC-2998 colon", "GI50": "> 100 µM"}
{"mol": "O=C(NCCCCOCC#Cc1ccccc1C#CCS(=O)(=O)c1ccccc1)c1cc2ccccc2[nH]1", "measured on": "HCC-2998 colon", "GI50": "12 µM"}
{"mol": "CC[C@H](NC(=O)[C@H](CS(=O)(=O)CC1CC1)N[C@@H](c1ccc(F)cc1)C(F)(F)F)C(=O)C(=O)NC1CC1", "measured on": "HCC-2998 colon", "GI50": "> 100 µM"}
{"mol": "N#Cc1cccc(OCc2ccccc2COc2cccc(C#N)c2)c1", "measured on": "HCC-2998 colon", "GI50": "> 100 µM"}

Shift focus to the following entry.
Task: Return GI50 (reported value) for this compound: `C#CCN(Cc1nc2cc(C(F)(F)F)ccc2nc1-c1ccccc1)c1ccc(F)c(F)c1`
Output: 44.8 µM
